Examples of compounds with documented Plant response rating, Corn follow.
System: corn
METHOD_NOTES: Test B pre/postemergence corn
Type: in vivo, Zea mays
CONDITION_CONTEXT: Preemergence, Rate 125 g/ha; scale 0 to 10 (0 no effect, 10 complete control)

Q: Find Plant response rating, Corn (corn) for the entry Cc1cc(C)c(-n2c(=O)on(C(=O)N(c3ccc(Cl)cc3)C(C)C)c2=O)c(C)c1
A: 0

Q: Find Plant response rating, Corn (corn) for the entry CC(C)N(C(=O)n1oc(=O)n(-c2ccc(Cl)cc2Cl)c1=O)c1ccc(F)cc1
A: 0

Q: Find Plant response rating, Corn (corn) for the entry Cc1cccc(C(C)C)c1-n1c(=O)on(C(=O)N(c2ccc(F)cc2)C(C)C)c1=O
A: 0

Q: Find Plant response rating, Corn (corn) for the entry CC(C)N(C(=O)n1oc(=O)n(-c2cnn(C)c2Cl)c1=O)c1ccc(F)cc1
A: 0

Q: Find Plant response rating, Corn (corn) for the entry CCCn1c(=O)on(C(=O)N(c2ccccc2)C(C)C)c1=O
A: 2

Q: Find Plant response rating, Corn (corn) for the entry CCN(CC)C(=O)n1oc(=O)n(-c2c(C)cccc2C)c1=O
A: 4

====

Test system: rape
METHOD_NOTES: Test B pre/postemergence rape
Format: in vivo, Brassica napus
CONDITION_CONTEXT: Rate 500 g/ha, Postemergence; scale 0 to 10
PROPERTY_NAME: Rape plant response rating
// keep it numeric: no unit symbol after the value

STRUCTURE_NOTATION: CCOC(=O)C=CCn1c(=O)on(C(=O)N(c2ccc(F)cc2)C(C)C)c1=O
Rape plant response rating: 3

Q: Fill in the blank: the reported Rape plant response rating of CC(C)N(C(=O)n1oc(=O)n(N(C)C)c1=O)c1ccc(F)cc1 is ____.
A: 3

Q: Fill in the blank: the reported Rape plant response rating of CC(C)N(C(=O)n1oc(=O)n(CC(=O)C(C)(C)C)c1=O)c1ccc(F)cc1 is ____.
A: 3

Q: Fill in the blank: the reported Rape plant response rating of Cc1nsc(C)c1-n1c(=O)on(C(=O)N(c2ccc(F)cc2)C(C)C)c1=O is ____.
A: 0

====

System: wild oat
METHOD_NOTES: Test B pre/postemergence wild oat
Format: in vivo, Avena fatua
CONDITION_CONTEXT: Preemergence, Rate 250 g/ha; scale of 0 to 10 where 0 is no effect and 10 is complete control
PROPERTY_NAME: Wild oats plant response rating

COMPOUND: CC(C)N(C(=O)n1oc(=O)n(CC(C)(C)C)c1=O)c1ccc(F)cc1 [Compound 246]
RESULT: 6
--
COMPOUND: Cc1ccccc1-n1c(=O)on(C(=O)N(c2ccc3c(c2)CCC3)C(C)C)c1=O [Compound 278]
RESULT: 0
--
COMPOUND: CC(C)N(C(=O)n1oc(=O)n(C2CC2)c1=O)c1ccc(F)cc1 [Compound 242]
RESULT: 9
--
COMPOUND: CCCCc1ccc(N(C(=O)n2oc(=O)n(-c3ccccc3C)c2=O)C(C)C)cc1 [Compound 229]
RESULT: 0
--
COMPOUND: COCn1c(=O)on(C(=O)N(c2ccc(F)cc2)C(C)C)c1=O [Compound 293]
RESULT: 8
--
COMPOUND: CCOc1nc(C(F)(F)F)c(Cn2c(=O)on(C(=O)N(c3ccc(F)cc3)C(C)C)c2=O)s1 [Compound 381]
RESULT: 0

Turning now to a further compound:
Q: Fill in the blank: the reported Wild oats plant response rating of CC(C)N(C(=O)n1oc(=O)n(C[Si](C)(C)C)c1=O)c1ccc(F)cc1 [Compound 294] is ____.
A: 3
